- Assay Notes: Metabolic stability in human liver microsomes assessed as intrinsic clearance
- Type: ADME, Microsome
- Protocol Conditions: read-out: CLH
In this section, each of the compounds is paired with its reported microsomal CLint.

Compound: COc1cc(N2CCN(CC3CCN(c4ccc(C5CCN(c6ccc(C#N)c(C(F)(F)F)c6)CC5)cc4)CC3)CC2)cc2c1C(=O)N(C1CCC(=O)NC1=O)C2 (stereo not drawn)
Scale Unit: µL/min/mg
Value Modifier: <
microsomal CLint: 3
--
Compound: N#Cc1ccc(N2CCC(c3ccc(OCCCCCN4CCN(c5ccc6c(c5)CN(C5CCC(=O)NC5=O)C6=O)CC4)cc3)CC2)cc1C(F)(F)F (stereo not drawn)
Scale Unit: µL/min/mg
Value Modifier: =
microsomal CLint: 12
--
Compound: N#Cc1ccc(N2CCC(c3ccc(OCCCCN4CCN(c5ccc6c(c5)C(=O)N(C5CCC(=O)NC5=O)C6=O)CC4)cc3)CC2)cc1C(F)(F)F (stereo not drawn)
Scale Unit: µL/min/mg
Value Modifier: =
microsomal CLint: 21

Values were extracted from ChEMBL document CHEMBL5523747.
